- test summary: Terminal half-life in human with uncomplicated malaria at 31 mg/kg, perorally after 63 days
- Format: ADME, organism-based
- Parameters: dose 31 mg/kg, route oral
- measurement parameters: in vivo, po

{"columns": ["structure as smiles", "half-life"],
 "data": [
  ["Clc1ccc2c(N3CCN(CCCN4CCN(c5ccnc6cc(Cl)ccc56)CC4)CC3)ccnc2c1", "28 days"]
]}

* * *

- test summary: Plasma concentration in human with uncomplicated malaria at 31 mg/kg, perorally four-dose treatment regimen measured at day 20
- Format: ADME, organism-based
- Design: dose 31 mg/kg, route oral
- measurement parameters: po, read-out: MIC
property measured: concentration at 20 day

{"columns": ["structure as smiles", "data value"],
 "data": [
  ["Clc1ccc2c(N3CCN(CCCN4CCN(c5ccnc6cc(Cl)ccc56)CC4)CC3)ccnc2c1", "13 ng/mL"]
]}

* * *

- test summary: Terminal half-life in healthy human at 25 mg/kg, po after 29 days
- Assay type: ADME, organism-based
- Design: dose 25 mg/kg, route oral
- measurement parameters: in vivo

{"columns": ["structure as smiles", "half-life (days)"],
 "data": [
  ["Clc1ccc2c(N3CCN(CCCN4CCN(c5ccnc6cc(Cl)ccc56)CC4)CC3)ccnc2c1", 12]
]}

* * *

- test summary: AUC (3 to 20 days) in human adult with uncomplicated malaria at 31 mg/kg, perorally
- Format: ADME, organism-based
- Parameters: dose 31 mg/kg, route oral
- measurement parameters: plasma, po
property measured: AUC(0-t) (ng·h/mL)

{"columns": ["structure as smiles", "data value"],
 "data": [
  ["Clc1ccc2c(N3CCN(CCCN4CCN(c5ccnc6cc(Cl)ccc56)CC4)CC3)ccnc2c1", 8650]
]}

* * *

- test summary: Terminal half-life in human with uncomplicated malaria at 35 mg/kg, perorally after 35 days
- Format: ADME, organism-based
- Design: dose 35 mg/kg, route oral
- measurement parameters: in vivo, po
property measured: half-life (days)

{"columns": ["structure as smiles", "data value"],
 "data": [
  ["Clc1ccc2c(N3CCN(CCCN4CCN(c5ccnc6cc(Cl)ccc56)CC4)CC3)ccnc2c1", 14]
]}

* * *

- test summary: Apparent steady-state volume of distribution with respect to bioavailability in human with uncomplicated malaria at 31 mg/kg, perorally
- Format: ADME, organism-based
- measurement parameters: in vivo, po, read-out: Vss/F

{"columns": ["compound", "Vd/F / L"],
 "data": [
  ["Clc1ccc2c(N3CCN(CCCN4CCN(c5ccnc6cc(Cl)ccc56)CC4)CC3)ccnc2c1 [PIPERAQUINE]", 38100]
]}

* * *

- test summary: AUC (0 to 60 days) in human adult with uncomplicated malaria at 31 mg/kg, perorally
- Format: ADME, organism-based
- Parameters: time < 1440 hr, dose 31 mg/kg, route oral
- measurement parameters: plasma, po

{"columns": ["structure as smiles", "AUC(0-t) at 1440 h"],
 "data": [
  ["Clc1ccc2c(N3CCN(CCCN4CCN(c5ccnc6cc(Cl)ccc56)CC4)CC3)ccnc2c1", "19400 ng·h/mL"]
]}

* * *

- test summary: Apparent steady-state volume of distribution with respect to bioavailability in high-fat fed healthy human at 4.2 mg/kg, po after 42 days
- Type: ADME, organism-based
- measurement parameters: in vivo, read-out: Vss/F
property measured: Vd/F (L/kg)

{"columns": ["compound", "data value"],
 "data": [
  ["Clc1ccc2c(N3CCN(CCCN4CCN(c5ccnc6cc(Cl)ccc56)CC4)CC3)ccnc2c1 [PIPERAQUINE]", 365]
]}

* * *

- test summary: Apparent oral clearance in human with uncomplicated malaria at 35 mg/kg, perorally after 35 days
- Type: ADME, organism-based
- Set-up: dose 35 mg/kg, route oral
- measurement parameters: in vivo

{"columns": ["molecule", "CL/F (mL/min/kg)"],
 "data": [
  ["Clc1ccc2c(N3CCN(CCCN4CCN(c5ccnc6cc(Cl)ccc56)CC4)CC3)ccnc2c1 [PIPERAQUINE]", 30.8]
]}

* * *

- test summary: Apparent oral clearance in healthy human at 25 mg/kg, po after 29 days
- Format: ADME, organism-based
- Design: dose 25 mg/kg, route oral
- measurement parameters: in vivo
property measured: CL/F (mL/min/kg)

{"columns": ["compound", "data value"],
 "data": [
  ["Clc1ccc2c(N3CCN(CCCN4CCN(c5ccnc6cc(Cl)ccc56)CC4)CC3)ccnc2c1 [PIPERAQUINE]", 16.7]
]}

* * *

- test summary: Terminal half-life in human with uncomplicated malaria at 32 mg/kg, perorally after 35 days
- Assay type: ADME, organism-based
- Design: dose 32 mg/kg, route oral
- measurement parameters: in vivo, po

{"columns": ["structure as smiles", "half-life [days]"],
 "data": [
  ["Clc1ccc2c(N3CCN(CCCN4CCN(c5ccnc6cc(Cl)ccc56)CC4)CC3)ccnc2c1", 23]
]}

* * *

- test summary: Terminal half-life in human with uncomplicated malaria at 31 mg/kg, perorally
- Assay type: ADME, organism-based
- Parameters: dose 31 mg/kg, route oral
- measurement parameters: in vivo, po

{"columns": ["structure as smiles", "half-life"],
 "data": [
  ["Clc1ccc2c(N3CCN(CCCN4CCN(c5ccnc6cc(Cl)ccc56)CC4)CC3)ccnc2c1", "28 days"]
]}

* * *

- test summary: Plasma concentration in human with uncomplicated malaria at 31 mg/kg, perorally once daily for 3 days measured at day 20
- Assay type: ADME, organism-based
- Parameters: dose 31 mg/kg, route oral
- measurement parameters: po, read-out: MIC

{"columns": ["compound", "concentration at 72 h"],
 "data": [
  ["Clc1ccc2c(N3CCN(CCCN4CCN(c5ccnc6cc(Cl)ccc56)CC4)CC3)ccnc2c1 [PIPERAQUINE]", "0.012 µg/mL"]
]}

* * *

- test summary: Terminal elimination half-life in human with uncomplicated malaria at 31 mg/kg, perorally
- measurement parameters: in vivo, po
property measured: half-life

{"columns": ["structure as smiles", "data value"],
 "data": [
  ["Clc1ccc2c(N3CCN(CCCN4CCN(c5ccnc6cc(Cl)ccc56)CC4)CC3)ccnc2c1", "27.8 days"]
]}
